Here the recorded inhibition is given for each entry.
assay: blockers of Ca2+-induced mitochondrial swelling – biochemical, isolated mouse mitochondria, absorbance, primary screen (AID 602449); conditions: 30 min, at 10 µM, active compounds read high;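 note: 0% = DMSO wells given calcium and 100% = 1 mM EGTA wells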
The whole screen tested about 360,000 compounds, of which about 5,000 (1.4%) were called active. Shown is part of a subset that was picked to be rich in actives.
ASSAY_ENDPOINT: inhibition (%)

>>> reported_measurement("CCCCOC(=O)CNc1nnc(SCC(=O)OCC)[nH]c1=O")
77.3
>>> reported_measurement("COc1cccc(NC(=O)COc2cc(C)cc3oc(=O)cc(C)c23)c1")
0.4
>>> reported_measurement("COc1cc2c3c(c1)/C(=C1/SC(=S)NC1=O)C(=O)N3C(C)(C)C=C2C")
91.4
>>> reported_measurement("O=C(CNC(=O)c1ccccc1Br)NNC(=O)c1cccs1")
-3.3
>>> reported_measurement("COC(=O)[C@@H](Cc1ccccc1)NC(=O)NCCc1ccccc1")
0.6
>>> reported_measurement("O=C(Nc1ccc(Cl)cc1)c1csc([C@H]2C[C@H](O)[C@@H](CO)O2)n1")
-0.6
>>> reported_measurement("O=C(OC(C(=O)NC1CCCC1)c1ccc(F)cc1)c1ccno1 (stereo unspecified)")
-3.3
>>> reported_measurement("O=S(=O)(Nc1cccc(-c2ccc(N3CCOCC3)nn2)c1)c1ccc(Cl)c(Cl)c1")
-0.6
>>> reported_measurement("CCOC(=O)c1sc(=NC(=O)/C=C/c2cccs2)n(C)c1C")
1.4
>>> reported_measurement("CC/C(=N\\NC(=O)c1ccccc1Cl)c1ccc(Br)s1")
-0.9
>>> reported_measurement("CCOC(=O)/C(N=Nc1cc(C(=O)O)cc(C(=O)O)c1)=C(\\O)CCl")
-2.4
